Test system: SK-MEL-28 melanoma
procedureText: NCI tumour cell line growth inhibition, 48 h
*1 amine or outer side, *2 acyl side, *3 side chain or, on linkers, in order; H or OH if unused. Where a SMILES comes first, the peptide text is derived from it. Bridges are numbered along the chain shown (N, C = ends). [ ]: non-standard residue; d: D form. The star is where a group is joined. Phe(3,5-F2) = N[C@@H](Cc1cc(F)cc(F)c1)C(=O)O; Pro(4R-Me) = C[C@H]1CN[C@H](C(=O)O)C1; aThr = C[C@H](O)[C@H](N)C(=O)O; Pip = O=C(O)[C@@H]1CCCCN1; X10 = Fc1cc(C2CC2)ccc1N*; Abu = CC[C@H](N)C(=O)O; CO = O=C([*:1])[*:2]
Here the recorded TGI is given for each entry.

molecule	assayedSystem	metric	result
Cn1c2ccccc2c2ccc3c(c21)C(=O)C=CC3=O	SK-MEL-28 melanoma	TGI	25.7 µM
CC1=Nn2c(nnc2-c2ccc(Cl)cc2)NC(C)(C)C1	SK-MEL-28 melanoma	TGI	> 100 µM
CC(C)(C)OC(=O)NCCCCCCC(=O)Cc1ccccc1	SK-MEL-28 melanoma	TGI	> 100 µM
CC[C@@H]1NC(=O)[C@@H]2CCCCN2C(=O)[C@@H]2CCCN2C(=O)[C@@H](NC(=O)[C@H](Cc2cc(F)cc(F)c2)NC(=O)Nc2ccc(C3CC3)cc2F)[C@H](C)OC(=O)[C@@H]2C[C@@H](C)CN2C1=O ({X10-CO}-[Phe(3,5-F2)][aThr]P[Pip][Abu][Pro(4R-Me)]; ester 2-C)	SK-MEL-28 melanoma	TGI	2.42 µM

Item under review: "C/C(CC(=O)Nc1ccc(C)c(C)c1)=N\NC(N)=S" . Reported TGI?
> 100 µM

# TGI lookup, item CC(=O)NC1=C(C)C(=O)c2c(nc3n2CCC3OC(=O)c2ccccc2)C1=O (stereo not drawn)
3.67 µM

What measured TGI goes with "CCC[CH2][Sn]([CH2]CCC)([O]C(=O)c1ccc(C)c(N)c1)[O]C(=O)c1ccc(C)c(N)c1" ?
1.57 µM

Reported TGI for COC(=O)CCC1(NS(=O)(=O)c2ccc(C)cc2)CCC(C(C)(C)C)CC1 (stereo not drawn) : what is it?
25.3 µM

GET /values?readout=TGI&item= COc1cccc(CC(C)N)c1 (stereo not drawn)
> 100 µM

Which TGI value belongs to "Cc1c2nc3ccccc3sc-2cc(=O)c1C" ?
> 100 µM

Recorded TGI of "O=C(Nc1ccc(Oc2cccc(Cl)c2)c(Cl)c1)c1cnccn1" , please.
> 50 µM

# get_value(readout='TGI', item= CCC(CN(C)C)C(=O)c1ccco1 (stereo not drawn) )
> 100 µM

// returns reported TGI for input "Cn1c(=O)c2c(ncn2Cc2ccc(O)c([N+](=O)[O-])c2)n(C)c1=O"
> 100 µM

GET /values?readout=TGI&item= "CCCCCCCCCCCC[C@H](O)[C@H]1CC[C@H]([C@H](O)CCCC[C@H](O)CCCCC[C@@H](O)CC2=C[C@H](C)OC2=O)O1"
41.2 µM

Consider the molecule "CC1(C)C(=NN=C(N)N)C(C)(C)C1=NN=C(N)N" and give its measured TGI.
> 100 µM

Request the reported TGI associated with "CCC(=C/[C@H](C)C/C=C/C(C)=C/[C@@H](C)C(=O)[C@@H](C)[C@H](O)[C@@H](C)CC)/C=C/[C@@H]1OC(=O)C=C[C@@H]1C"
0.0757 µM

Bench note: what TGI did "Cc1n[nH]c(=O)n1-c1cccnc1" show?
> 100 µM

Can you share its TGI? I mean this molecule: COc1cc(OC)cc(C2C(C#N)=C(N)Oc3c2ccc2ccc(O)cc32)c1 (stereo not drawn)
9.97 µM

May I ask what TGI has been recorded for CC(C)=NNc1ncnc2c1ncn2C1OC(CO)C(O)C1O (stereo not drawn) ?
> 100 µM

Find the recorded TGI belonging to "CCCC(=O)c1ccc2c(ccc(=O)n2C)c1" and report it.
> 100 µM

For CCOC(=O)C1(c2ccccc2)CCCNCC1 (stereo not drawn) , what is its reported TGI?
> 100 µM

====

Test system: 786-0 renal
procedureText: NCI tumour cell line growth inhibition, 48 h
metric: TGI

> print(dat)
                                 smilesrepr  metric     result
1  CCc1nc(N)nc(N)c1-c1ccc(Cc2ccccc2)c([N+](=O)[O-])c1     TGI  > 60.7 µM
2  CC1(C)CC(=O)c2c(nc3c(ccc4ccccc43)c2-c2ccc(NC(=O)CCCC(=O)Nc3ccc(-c4c5c(nc6c4ccc4ccccc46)CC(C)(C)CC5=O)cc3)cc2)C1     TGI   > 100 µM
3                 Oc1ccc(-c2cn3ccsc3n2)cc1O     TGI   > 100 µM

Continue with the next compound.
Data request, read-out TGI, for "CCc1c(C)[nH]c2c1/C(=N/N=C1\CCCc3[nH]c(C)c(CC)c31)CCC2"
> 100 µM

====

Tested on: NCI/ADR-RES ovarian
procedureText: NCI tumour cell line growth inhibition, 48 h
Entries and their measured TGI follow.

molecule	TGI
COC1=C(OC)C23CCc4ccc(OC)c(O)c4C2(CCN3)CC1=O (stereo not drawn)	> 100 µM

# TGI lookup, item COC1/C=C/C(C)C(OC)CC(O)/C=C/C(C)C(C(C)C(OC)C(C)CCC(=O)C(C)C(C/C=C/N(C)C=O)OC)OC(=O)/C=C/C=C(\C)CC(OC)CC2=CC(=O)O[C@@H](C(C)C(OC)C1)[C@H]2O (stereo partly drawn)
1.14 µM

What measured TGI goes with "CC(=O)Oc1ccc2oc(=O)cc(C)c2c1" ?
> 100 µM

====

System: MDA-MB-435
procedureText: NCI tumour cell line growth inhibition, 48 h
metric: TGI

Examples with their reported TGI follow.
> print(dat)
                                   compound  metric      result
1  CN(CCNC(=O)c1nn(-c2ccccc2)c2c1ccc1ccccc12)CCNC(=O)c1nn(-c2ccccc2)c2c1ccc1ccccc12     TGI        4 µM
2  CCC(=C/[C@H](C)C/C=C/C(C)=C/[C@@H](C)C(=O)[C@@H](C)[C@H](O)[C@@H](C)CC)/C=C/[C@@H]1OC(=O)C=C[C@@H]1C     TGI  < 0.005 µM
3  Cn1c(=O)c2c(ncn2Cc2ccc(O)c([N+](=O)[O-])c2)n(C)c1=O     TGI    > 100 µM

Entry COC1=C(OC)C23CCc4ccc(OC)c(O)c4C2(CCN3)CC1=O (configuration not stated) has what TGI?
> 100 µM

Which value of TGI has been reported for CCC1([N+](=O)[O-])CC2C=CC1C2 (configuration not stated) in the records?
> 100 µM

TGI for "CC(=O)Oc1ccc2oc(=O)cc(C)c2c1" ?
> 100 µM

Dear colleague, I am looking for the recorded TGI of the following compound: "Nc1ccc2c(c1)Cc1ccccc1-2"
> 100 µM

====

Each item that follows carries a reported TGI.
Test system: LOX IMVI melanoma
procedureText: NCI tumour cell line growth inhibition, 48 h

> print(dat)
                                   compound  metric     result
1  COC(=O)CSC1CC(=O)c2c(Cl)sc(Cl)c21 (stereo unspecified)     TGI   > 100 µM
2  COc1cc(C(C)c2ccc3c(ccn3C)c2)cc(OC)c1OC (stereo unspecified)     TGI   > 100 µM
3  COc1cc2c(c(OC)c1OC)-c1ccc(SC)c(=O)cc1[C@@H](OC(=O)c1ccncc1)CC2     TGI  > 35.7 µM

Given the compound Clc1ccc(C2ON=C(c3ccccc3)N2C23CC4CC(CC(C4)C2)C3)c(Cl)c1 (stereo unspecified) , what is its reported TGI?
> 10 µM

# input compound: "FC(F)(F)CNc1nccc(-c2cnn3ncccc23)n1" ; wanted: its TGI
> 25 µM

Can you share its TGI? I mean this compound: "Nc1ncnc2nc(N3CCN(CCO)CC3)[nH]c12"
> 100 µM

====

Test system: A498 renal
procedureText: NCI tumour cell line growth inhibition, 48 h; in the data active means GI50 below about 0.43 µM; inactive means the rest
Pick from true for active, false for inactive when you respond.

Example cases with answers are listed next.
> print(dat)
                                   compound    cat
1  CCC[CH2][Sn]([CH2]CCC)([O]C(=O)c1ccc(C)c(N)c1)[O]C(=O)c1ccc(C)c(N)c1   true
2  COc1ccc(CN2C(=O)C(Cl)=C(Nc3cccc(O)c3)C2=O)cc1  false
3                 Oc1ccc(-c2cn3ccsc3n2)cc1O  false
4  CC1SC(c2ccc(Cl)c(Cl)c2)N(NC(=O)C(O)c2ccccc2)C1=O (stereo unspecified)  false
5      COc1cccc2cc(N(C)c3ncnc4ccccc34)ccc12   true

Please look at the following compound next.
Called result for "Cc1nc2ccccc2c(/C=C/c2ccc(Cl)cc2)c1C(=O)/C=C/c1ccc(F)cc1"
false
